assayed system: T1, human CD20 antigen (human, UniProt P11836 1-297)
T1 construct: whole, on cells; also called CD20/CHO cells; CD20 on Raji cells
T1 sequence (looked up): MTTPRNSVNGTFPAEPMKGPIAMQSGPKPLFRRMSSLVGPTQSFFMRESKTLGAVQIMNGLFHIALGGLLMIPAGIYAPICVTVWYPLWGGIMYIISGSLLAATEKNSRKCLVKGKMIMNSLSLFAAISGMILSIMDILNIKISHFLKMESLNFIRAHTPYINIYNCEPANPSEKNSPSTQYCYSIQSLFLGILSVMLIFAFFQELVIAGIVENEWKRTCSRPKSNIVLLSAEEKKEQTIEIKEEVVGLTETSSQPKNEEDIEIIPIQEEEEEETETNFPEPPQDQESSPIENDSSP
test protocol: CD20/CHO cell-ELISA, antibody at 32 ng/ml
value kind: A492 (A492)

[[record]]
binder = "chimeric anti-CD20 monoclonal antibody c1K1422 (antibody, V domains shown, Murine variable regions fused to human immunoglobulin H chain and L chain (kappa) constant regions of vector pNOW-Ab) VH: QVQLQQPGAELVKPGASVKMSCRASGYTFTNYNMHWIKQTPGQGLEWIGAIYPGSGDTSYNRKFKGKATLTADTSSSTAYMQFSSLTSADSAVYYCARFTYYYGGTYGAMDYWGQGTSVTVSL VL: QIVLTQSPPIMSASLGEEITLTCSASSRVSYMLWYQQKSGTSPKLLIYSTSNLASGVPSRFSGSGSGTFYSLTISSVEAEDAADYYCHQWTSNPCTFGGGTKLEIK"
observed = 0.912

[[record]]
binder = "Rituximab (c2B8) (antibody, V domains shown) VH: QVQLQQPGAELVKPGASVKMSCKASGYTFTSYNMHWVKQTPGRGLEWIGAIYPGNGDTSYNQKFKGKATLTADKSSSTAYMQLSSLTSEDSAVYYCARSTYYGGDWYFNVWGAGTTVTVSA VL: QIVLSQSPAILSASPGEKVTMTCRASSSVSYIHWFQQKPGSSPKPWIYATSNLASGVPVRFSGSGSGTSYSLTISRVEAEDAATYYCQQWTSNPPTFGGGTKLEIK"
observed = 1.14

